assay: Concentration formed during 5 min incubation of quinone (1 mM) with GSH (5 mM)
reported_property: Concentration (mM)
Report the figure in mM without appending any unit label.

Recorded Concentration for CCC(O)c1cc(OC)c2c(c1OC)C(=O)C=CC2=O (centres undefined) , please?
0.295

Subsequent entry: CCCCCC(O)C1=CC(=O)c2c(OC)ccc(OC)c2C1=O (centres undefined)
0.124

Subsequent entry: COc1ccc(OC)c2c1C(=O)C=C(C(C)O)C2=O (centres undefined)
0.125

Subsequent entry: CCCCCC(O)c1cc(OC)c2c(c1OC)C(=O)C=CC2=O (centres undefined)
0.28

Subsequent entry: CCC(O)C1=CC(=O)c2c(OC)ccc(OC)c2C1=O (centres undefined)
0.084

Subsequent entry: CCCCCCCC(O)c1cc(OC)c2c(c1OC)C(=O)C=CC2=O (centres undefined)
0.137

Subsequent entry: CCCCCCCC(O)C1=CC(=O)c2c(OC)ccc(OC)c2C1=O (centres undefined)
0.06

Subsequent entry: COc1cc(CO)c(OC)c2c1C(=O)C=CC2=O
0.314

Subsequent entry: CCCC(O)C1=CC(=O)c2c(OC)ccc(OC)c2C1=O (centres undefined)
0.116

Subsequent entry: CCCCCCC(O)C1=CC(=O)c2c(OC)ccc(OC)c2C1=O (centres undefined)
0.072

Subsequent entry: CCCCC(O)C1=CC(=O)c2c(OC)ccc(OC)c2C1=O (centres undefined)
0.131

Subsequent entry: COc1cc(C(C)O)c(OC)c2c1C(=O)C=CC2=O (centres undefined)
0.304

Subsequent entry: CCCCCCC(O)c1cc(OC)c2c(c1OC)C(=O)C=CC2=O (centres undefined)
0.182

Subsequent entry: COc1ccc(OC)c2c1C(=O)C=C(CO)C2=O
0.13
